# Tested System: Carbonic anhydrase 2 (Homo sapiens)
# Protocol Details: CAII small-molecule binders, profiling panel, biochemical, small-molecule microarray, Alexa647-labelled CAII (AID 1122)
# Conditions Used: CAII-A647 binding fluorescence, higher = more signal
Values of composite z-score greater than or equal to 0.6 map to class 1; values below map to class 0.

Record excerpt, results attached:
{"Compound": "C=CCN1C(=O)[C@@]2(O[C@@H](CCO)[C@H]([Si](C)(C)c3ccc(OC)cc3)[C@H]2C)c2cc(N3C(=O)c4cccc5cccc3c45)ccc21", "Tested System": "Carbonic anhydrase 2 (Homo sapiens)", "Assigned Class": "class 0"}
{"Compound": "CC(C)C(CO)N1C(=O)[C@@H]2[C@H]3C(=O)OCC=C[C@H]3OC23C=CCN(Cc2ccccc2)C(=O)[C@@H]13 (stereo not given in full)", "Tested System": "Carbonic anhydrase 2 (Homo sapiens)", "Assigned Class": "class 1"}
{"Compound": "C=CCN1C(=O)[C@@]2(O[C@@H](CCn3cc(CCO)nn3)[C@H]([Si](C)(C)c3ccc(OC)cc3)[C@H]2C)c2cc(N3C(=O)c4cccc5cccc3c45)ccc21", "Tested System": "Carbonic anhydrase 2 (Homo sapiens)", "Assigned Class": "class 0"}
{"Compound": "O=C1O[C@H](c2ccccc2)[C@H](c2ccccc2)N2[C@H]1[C@@H](C(=O)NC[C@H](O)c1ccccc1)[C@]1(C(=O)Nc3ccc(C#CC4(O)CCCCCC4)cc31)[C@H]2c1ccc(O)cc1", "Tested System": "Carbonic anhydrase 2 (Homo sapiens)", "Assigned Class": "class 0"}

Okay, now this compound:
// query Quick check, composite z-score >= 0.6? [N-]=[N+]=Nc1ccccc1[C@H]1OC(c2ccc(OCCCO)cc2)=N[C@@]1(Cc1ccccc1)C(N)=O
// result class 1

Provenance of the data: PubChem BioAssay
